- Measured Target: Adenosine receptor A2a (Homo sapiens)
- Sequence (P29274 whole entry): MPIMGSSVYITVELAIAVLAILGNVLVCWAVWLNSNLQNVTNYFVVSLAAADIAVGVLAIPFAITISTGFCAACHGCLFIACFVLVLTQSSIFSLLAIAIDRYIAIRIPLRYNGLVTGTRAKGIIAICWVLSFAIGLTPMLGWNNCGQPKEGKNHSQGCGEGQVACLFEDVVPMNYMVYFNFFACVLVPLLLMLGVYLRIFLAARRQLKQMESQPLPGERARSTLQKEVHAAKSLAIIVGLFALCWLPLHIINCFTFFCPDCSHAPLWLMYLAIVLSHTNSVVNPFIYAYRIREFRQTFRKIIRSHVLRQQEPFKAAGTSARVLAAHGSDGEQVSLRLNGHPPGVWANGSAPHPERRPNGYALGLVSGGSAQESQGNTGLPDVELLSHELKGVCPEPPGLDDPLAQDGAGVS
- Method: Displacement of [3H]ZM241385 from human adenosine A2A receptor expressed in HEK293 cells after 1 hr by liquid scintillation counting
- Assay type: cell-based
- Conditions: read-out: pKi (converted)
Listed here: items and their measured log10(Ki).
A difference of one corresponds to tenfold Ki; all values are log10 with Ki in nM.

Look over these answered cases.
CCCc1cc2c(=O)c(-c3nc(C)cs3)coc2cc1O | 1.40
Cc1csc(-c2coc3cc(OCC4CC4)cc(C)c3c2=O)n1 | 1.90
CCOc1cc2occ(-c3nc(C)cs3)c(=O)c2cc1CC | 1.60

Asked: Missing value: log10(Ki), Adenosine receptor A2a (Homo sapiens), entry `C#CCCCOc1cc(C)c2c(=O)c(-c3nc(C)cs3)coc2c1` . Fill in?
Given back: 1.40

Asked: Fill in the recorded log10(Ki) for this molecule, with Adenosine receptor A2a (Homo sapiens) as test system: `Cc1csc(-c2coc3cccc(C)c3c2=O)n1`
Given back: 2.50

Asked: Give log10(Ki) (Adenosine receptor A2a (Homo sapiens)) of the following molecule: `CCc1cc2c(=O)c(-c3csc(C)n3)coc2cc1O`
Given back: 1.70

* * *

- Measured Target: Adenosine receptor A2b (Homo sapiens, UniProt P29275)
- Sequence (P29275 whole entry): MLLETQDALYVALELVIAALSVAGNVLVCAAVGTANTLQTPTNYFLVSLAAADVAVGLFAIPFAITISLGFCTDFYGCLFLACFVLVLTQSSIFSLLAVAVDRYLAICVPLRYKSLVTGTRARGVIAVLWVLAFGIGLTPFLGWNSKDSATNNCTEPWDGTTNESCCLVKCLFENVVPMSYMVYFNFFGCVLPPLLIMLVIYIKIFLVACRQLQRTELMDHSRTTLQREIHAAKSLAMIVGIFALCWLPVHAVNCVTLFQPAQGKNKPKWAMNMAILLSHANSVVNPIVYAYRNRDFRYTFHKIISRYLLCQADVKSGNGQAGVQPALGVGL
Test Readout: Ki

Asked: Reported Ki, molecule `CCOc1cc2occ(-c3nc(C)cs3)c(=O)c2cc1CC` : ____
Given back: > 10 µM

* * *

Listed next: entries and their corresponding Ratio Ki.
- System: CHO
- Method: Selectivity ratio of Ki for human adenosine A1 receptor expressed in CHO cells to Ki for human adenosine A2A receptor expressed in HEK293 cells
- Assay type: cell-based

Asked: What measured Ratio Ki goes with `Cc1csc(-c2coc3cc(OCC4CC4)cc(C)c3c2=O)n1` ?
Given back: > 100

Asked: I'd like to know its Ratio Ki. The molecule in question is `CCc1cc2c(=O)c(-c3nc(C)cs3)coc2cc1O`
Given back: > 100

Asked: For `CCCCCc1cc2c(=O)c(-c3nc(C)cs3)coc2cc1O` , what is its reported Ratio Ki?
Given back: > 100

Asked: # query: Ratio Ki of entry `CC(=O)Oc1cc(C)c2c(=O)c(-c3nc(C)cs3)coc2c1`
Given back: 13

* * *

- Method: Half life in Sprague-Dawley rat liver microsomes at 3 uM by LC-MS analysis
- Assay type: ADME
Here the recorded half-life at 3 µM is given for each entry.
Hi! Could you send only the number? It should be in min, unit omitted.

Here are 2 compounds together with their reported answers.
Cc1csc(-c2coc3cccc(C)c3c2=O)n1 | 14
CCOc1cc2occ(-c3nc(C)cs3)c(=O)c2cc1CC | 16

Here is the next item to consider.
Asked: Quick check: half-life at 3 µM of `Cc1csc(-c2coc3cc(OCC4CC4)cc(C)c3c2=O)n1` ?
Given back: 18
